- SYSTEM UNDER TEST: human ether-à-go-go-related gene (hERG) potassium channel (human);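 further: peak tail current of the secondary pulse compared with the same well before compound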
- Sequence (Q12809 whole entry, looked up): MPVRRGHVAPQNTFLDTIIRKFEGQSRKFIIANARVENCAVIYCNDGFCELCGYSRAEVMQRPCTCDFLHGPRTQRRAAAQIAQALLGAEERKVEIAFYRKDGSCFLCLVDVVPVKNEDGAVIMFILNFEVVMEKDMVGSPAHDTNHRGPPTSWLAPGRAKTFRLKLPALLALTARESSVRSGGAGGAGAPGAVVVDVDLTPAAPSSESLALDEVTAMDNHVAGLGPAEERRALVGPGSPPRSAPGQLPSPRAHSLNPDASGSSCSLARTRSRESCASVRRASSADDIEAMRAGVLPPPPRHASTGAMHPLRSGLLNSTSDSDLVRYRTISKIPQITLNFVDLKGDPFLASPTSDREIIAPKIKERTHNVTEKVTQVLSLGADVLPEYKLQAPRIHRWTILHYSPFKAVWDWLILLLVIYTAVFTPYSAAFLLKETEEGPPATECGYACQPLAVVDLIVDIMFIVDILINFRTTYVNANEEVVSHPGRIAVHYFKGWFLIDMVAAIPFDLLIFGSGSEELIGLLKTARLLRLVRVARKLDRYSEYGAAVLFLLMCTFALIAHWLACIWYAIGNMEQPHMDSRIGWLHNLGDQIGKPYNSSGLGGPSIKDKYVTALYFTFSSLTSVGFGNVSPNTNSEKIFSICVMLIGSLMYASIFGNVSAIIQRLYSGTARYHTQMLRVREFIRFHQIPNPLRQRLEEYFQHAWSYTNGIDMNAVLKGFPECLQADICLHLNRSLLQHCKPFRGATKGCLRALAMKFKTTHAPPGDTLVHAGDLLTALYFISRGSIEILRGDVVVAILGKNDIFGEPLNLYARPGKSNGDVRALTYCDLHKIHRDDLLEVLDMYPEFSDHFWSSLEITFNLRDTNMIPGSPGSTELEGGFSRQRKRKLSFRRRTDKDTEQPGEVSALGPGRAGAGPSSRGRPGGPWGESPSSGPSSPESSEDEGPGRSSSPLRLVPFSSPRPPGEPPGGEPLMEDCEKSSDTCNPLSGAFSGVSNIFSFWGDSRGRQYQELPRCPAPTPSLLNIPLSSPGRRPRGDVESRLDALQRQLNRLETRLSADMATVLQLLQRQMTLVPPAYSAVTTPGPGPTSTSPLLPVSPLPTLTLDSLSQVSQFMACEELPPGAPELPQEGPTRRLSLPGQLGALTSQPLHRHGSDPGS
- METHOD NOTES: primary screen, population patch clamp on CHO cells stably expressing hERG; higher = less effect of the substance
In all, about 310,000 compounds went through this assay and about 14,000 (4.5%) showed an effect of 50% or more. Effects have a minus sign here. Shown is part of a subset that was picked to be rich in strong results.
This section presents molecules with their documented hERG current change (%, negative = inhibition) at 10uM values.
Answer format: numeric, % implied, no suffix.

Some molecules with known hERG current change (%, negative = inhibition) at 10uM results, for comparison:
[
  {
    "TEST SMILES": "O=C(COC(=O)c1cc(NS(=O)(=O)c2cccs2)ccc1O)Nc1ccc(F)c(F)c1F",
    "SYSTEM UNDER TEST": "human ether-à-go-go-related gene (hERG) potassium channel (human)",
    "NUMERIC READOUT": 4.87
  },
  {
    "TEST SMILES": "Cc1ccc(OCCCCN2CCc3ccccc3C2)cc1.Cl",
    "SYSTEM UNDER TEST": "human ether-à-go-go-related gene (hERG) potassium channel (human)",
    "NUMERIC READOUT": -34.9
  },
  {
    "TEST SMILES": "Br.CCCCCCCCCCn1c2c(c(=N)c3c1CCC3)CCC2",
    "SYSTEM UNDER TEST": "human ether-à-go-go-related gene (hERG) potassium channel (human)",
    "NUMERIC READOUT": -78.9
  },
  {
    "TEST SMILES": "Cc1ccc2c(c1)nnn2C1CCN(CC(=O)NCc2ccccc2F)CC1",
    "SYSTEM UNDER TEST": "human ether-à-go-go-related gene (hERG) potassium channel (human)",
    "NUMERIC READOUT": -59.9
  }
]

Q: Endpoint output: hERG current change (%, negative = inhibition) at 10uM of CCOC(=O)Cn1c2c(c(=N)c3c1CCC3)CCCC2.Cl . Value?
Result: 18.5

Q: Endpoint output: hERG current change (%, negative = inhibition) at 10uM of Cc1ccc2c(c1)nnn2C1CCN(CC(=O)NNC(=O)c2ccco2)CC1 . Value?
Result: 37.1

Q: Endpoint output: hERG current change (%, negative = inhibition) at 10uM of C=CCOc1ccc(C(=O)n2cc(C(=O)OC)c3ccccc32)cc1 . Value?
Result: 9.62

Q: Endpoint output: hERG current change (%, negative = inhibition) at 10uM of O=C(CN1CCC(n2nnc3cc(F)ccc32)CC1)NCCc1ccccc1 . Value?
Result: -41.5

Q: Endpoint output: hERG current change (%, negative = inhibition) at 10uM of Br.CCn1c2c(c(=N)c3c1CCC3)CCCC2 . Value?
Result: -2.41

Q: Endpoint output: hERG current change (%, negative = inhibition) at 10uM of O=C(CCc1ccc(S(=O)(=O)N2CCOCC2)cc1)N1CCc2ccccc2C1 . Value?
Result: -14.5

Q: Endpoint output: hERG current change (%, negative = inhibition) at 10uM of Br.CCCCCCn1c2c(c(=N)c3c1CCC3)CCC2 . Value?
Result: -76.5

Q: Endpoint output: hERG current change (%, negative = inhibition) at 10uM of CC(C)C12CN3CCN(CC(C3)/C1=N\NC(=O)Nc1ccccc1)C2 . Value?
Result: -16.1
